Biological target: T1, EsCas13d, nuclease-dead (Eubacterium siraeum, UniProt B0MS50, R295A;H300A;R849A;H854A)
T1 sequence: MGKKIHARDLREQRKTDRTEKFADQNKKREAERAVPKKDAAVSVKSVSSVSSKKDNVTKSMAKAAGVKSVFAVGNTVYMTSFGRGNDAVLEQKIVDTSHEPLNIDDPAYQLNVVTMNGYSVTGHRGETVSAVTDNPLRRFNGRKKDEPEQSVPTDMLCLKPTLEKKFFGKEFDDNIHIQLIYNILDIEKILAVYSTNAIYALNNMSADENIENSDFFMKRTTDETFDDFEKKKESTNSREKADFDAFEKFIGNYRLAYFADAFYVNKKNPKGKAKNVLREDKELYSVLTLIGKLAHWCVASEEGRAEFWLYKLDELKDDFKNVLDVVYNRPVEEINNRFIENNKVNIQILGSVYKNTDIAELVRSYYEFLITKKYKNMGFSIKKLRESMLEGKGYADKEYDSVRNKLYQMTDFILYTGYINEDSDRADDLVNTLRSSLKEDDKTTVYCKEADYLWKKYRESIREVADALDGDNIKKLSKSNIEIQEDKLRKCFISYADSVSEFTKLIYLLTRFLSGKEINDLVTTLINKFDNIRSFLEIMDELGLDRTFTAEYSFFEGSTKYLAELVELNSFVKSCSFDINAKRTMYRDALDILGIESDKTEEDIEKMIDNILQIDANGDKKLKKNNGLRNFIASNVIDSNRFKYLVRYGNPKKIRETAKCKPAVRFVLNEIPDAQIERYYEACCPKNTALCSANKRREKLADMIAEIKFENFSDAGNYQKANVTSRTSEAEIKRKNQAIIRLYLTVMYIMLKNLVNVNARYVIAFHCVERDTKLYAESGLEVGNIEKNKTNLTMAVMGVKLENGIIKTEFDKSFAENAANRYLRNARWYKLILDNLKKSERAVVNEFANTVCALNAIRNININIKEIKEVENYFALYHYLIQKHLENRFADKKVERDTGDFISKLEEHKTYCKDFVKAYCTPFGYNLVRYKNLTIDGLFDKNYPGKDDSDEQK
Assay: crRNA (strand 1, pre-loaded); Mg2+; 40 mM Tris-HCl pH 7.5, 150 mM NaCl, 6 mM MgCl2, 1 mM DTT, 0.1% Tween-20, 0.2 mg/ml BSA; 25 C; 10 min per concentration, then washed
Conditions: tags: His6-TwinStrep-SUMO cleaved; N-terminal SNAP kept (SNAP-Surface 488); label: 3' end held by stalled T7 RNA polymerase
I'd be grateful if you could share measured Kd for these entries.
Answers are plain numbers, in nM.

>  <Binder>
target 2 MT 5'PFS ACG 3'PFS UCC (mixed) RNA 1: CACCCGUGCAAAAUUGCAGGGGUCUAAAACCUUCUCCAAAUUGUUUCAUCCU RNA 2: GGGAAUGGAUCCACAUCUACGAAUUCACGAGGAUGAAACAAUUUGGAGAAGUCCAGAUCGGAAGAGCACACGU

>  <Experimental endpoint>
Kd

>  <Measurement unit>
nM

>  <Reported measurement>
34

$$$$

I'd like to know its Kd. The binder in question is target 1 C6U,U11G (mixed) RNA 1: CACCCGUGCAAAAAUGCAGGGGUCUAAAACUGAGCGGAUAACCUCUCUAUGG RNA 2: GGGAAUGGAUCCACAUCUACGAAUUCGUACCAUAGAGAGGGUAUCUGCUCACCGAGAUCGGAAGAGCACACGU
16.2
